Listing: drug sensitivity score of selected molecules
System: OVCAR8
Assay summary: drug sensitivity score (DSS2) on cancer cell count; higher = more sensitive; extreme values may be limits of the assay
Setup conditions: co-cultured fibroblast: WI38; 72 h
Enter the number, and then the unit.

// solved cases for drug sensitivity score follow
> print(dat)
                                   molecule    result
1  Cn1cncc1[C@@](N)(c1ccc(Cl)cc1)c1ccc2c(c1)c(-c1cccc(Cl)c1)cc(=O)n2C [Tipifarnib]   2.5 DSS
2  CNC(=O)c1ccc(N2C(=S)N(c3ccc(C#N)c(C(F)(F)F)c3)C(=O)C2(C)C)cc1F [Enzalutamide]     0 DSS
3  O=C(/C=C\n1cnc(-c2cc(C(F)(F)F)cc(C(F)(F)F)c2)n1)NNc1cnccn1 [Selinexor]  24.3 DSS

input: Param item = CN1CCN(c2cc(C(=O)Nc3ccc4c(c3)-c3c(c(C(N)=O)nn3-c3ccc(F)cc3)CC4)c(Cl)cn2)CC1 [PHA 408] ; retrieve measured drug sensitivity score.
output: 8.6 DSS

----------
System: OVCAR8
Assay summary: drug sensitivity score (DSS2) on cancer cell count; higher = more sensitive; extreme values may be limits of the assay
Setup conditions: co-cultured fibroblast: BJHTERT; 72 h
Measurement name: drug sensitivity score (DSS)
Give the value, in units of DSS, as a plain number.

> print(dat)
                                   compound        measurement.name  quantitative.result
1  CNC(=O)c1cc(COc2nnc(Nc3ccc(Cl)cc3)c3ccoc23)ccn1  drug sensitivity score                  1.1
2  Cn1cc(C2=C(c3cn(C4CCN(Cc5ccccn5)CC4)c4ccccc34)C(=O)NC2=O)c2ccccc21  drug sensitivity score                    0
3  CNC(=O)c1ccc(N2C(=S)N(c3ccc(C#N)c(C(F)(F)F)c3)C(=O)C2(C)C)cc1F [Enzalutamide]  drug sensitivity score                    0

Alright, here's another compound for you.
input: Param item = CC(C)(C)c1cc(NC(=O)Nc2ccc(Oc3ccnc4[nH]c(=O)cnc34)cc2F)n(-c2ccccc2)n1 ; retrieve measured drug sensitivity score.
output: 6.6

----------
Tested on: KURAMOCHI
Assay summary: drug sensitivity score (DSS2) on cancer cell count; higher = more sensitive; extreme values may be limits of the assay
Setup conditions: co-cultured fibroblast: WI38; 72 h
Decide using drug sensitivity score: a value greater than or equal to 5 DSS is true (1), a smaller one is false (0).

Solved cases (2 shown):
> print(dat)
                                 cpd.smiles  label.value
1  Cc1noc2c1-c1ccccc1C(c1ccc(Cl)cc1)=N[C@H]2CC(N)=O     true (1)
2  O[C@H](C[C@H]1c2c(F)cccc2-c2cncn21)[C@H]1CC[C@H](O)CC1    false (0)

input: Is drug sensitivity score at least 5 DSS? Consider CN1CCN(C(=O)c2ccc3cc(CCNc4ncnc5ccc(C#N)cc45)ccc3c2)CC1
output: false (0)

input: Let us now turn to c1cc(CN2CCCNCCNCCCNCC2)ccc1CN1CCCNCCNCCCNCC1
output: false (0)

input: Let us now turn to C[C@@H]1CN(CC(=O)Nc2ccc3c(c2)Cc2cccc(-c4cc(=O)cc(N5CCOCC5)o4)c2S3)C[C@H](C)O1
output: false (0)

input: Let us now turn to O=C(Nc1nc2cccc(-c3ccc(CN4CCS(=O)(=O)CC4)cc3)n2n1)C1CC1
output: true (1)

input: Let us now turn to Cc1ccc(C(=O)Nc2ccc(CN3CCN(C)CC3)c(C(F)(F)F)c2)cc1C#Cc1cnc2cccnn12
output: true (1)

input: Let us now turn to COc1cc2c(NC3CCN(C(C)C)CC3)nc(C3CCCCC3)nc2cc1OCCCN1CCCC1
output: false (0)
